test system: U2OS; experiment: Multiplex assay against U2OS; type: toxicity, cell-based; details: human, 12 h, 10 µM, compound concentration 10 uM, replicate 2
Use 20% as the dividing line for Population Mitotic Cells (%), with the line itself on the satisfied side and lower values as not satisfied.

{"columns": ["compound", "assigned-class"],
 "data": [
  ["NCCc1cn(S(=O)(=O)c2c(Cl)nc3sccn23)c2ccccc12.O=C(O)C(=O)O", "not satisfied"],
  ["COc1ccccc1N1CCN(C[C@@H](C(=O)NC(C)(C)C)c2ccccc2)CC1.Cl.Cl", "satisfied"],
  ["CC(C)(C)c1cc(NC(=O)Nc2ccc(-c3cn4c(n3)sc3cc(OCCN5CCOCC5)ccc34)cc2)no1 [QUIZARTINIB]", "satisfied"],
  ["Cl.NCCc1ccc(O)c(O)c1 [DOPAMINE HYDROCHLORIDE]", "satisfied"],
  ["CCc1cc2cc(NS(=O)(=O)c3ccc(C#N)cc3)ccc2n(CC)c1=O", "not satisfied"]
]}
